Measured values drawn from the supplement of paper PMC8728848 for this set.

# TARGET DESC: Gal(b1-4)GlcNAc(b1-2)[Gal(b1-4)GlcNAc(b1-4)]Man(a1-3)[GlcNAc(b1-4)][Gal(b1-4)GlcNAc(b1-2)Man(a1-6)]Man(b1-4)GlcNAc(b1-4)GlcNAc
# ASSAY NOTES: glycan array binding signal (z-score within array); higher = stronger binding
# DETAILS: glycan notation: IUPAC condensed, linker removed
Shown is part of a subset that was picked to be rich in the strongest signals.
MEASUREMENT LABEL: glycan array binding signal (z-score)

Langerin K299A/K313A (Homo sapiens), Q9UJ71 (protein) STLNAQIPELKSDLEKASALNTKIRALQGSLENMSKLLKRQNDILQVVSQGWKYFKGNFYYFSLIPKTWYSAEQFCVSRNSHLTSVTSESEQEFLYKTAGGLIYWIGLTKAGMEGDWSWVDDTPFNKVQSARFWIPGEPNNAGNNEHCGNIAAPSLQAWNDAPCDATFLFICKRPYVPSEP: -0.95

Next, consider the following binder.
Which glycan array binding signal (z-score) is listed for his-Lectin-24A (Drosophila melanogaster) (protein) MFRLSVLVLNLLLVSHEFSAGTAKIEIQPLPALCNGYCFPTLKPVMEYVAIHQDKWNTCTEILANEARKDQIQLNIQLDALKADVSNIKASQLSKDEKLDRMEREQFAMHESLETINRYLTVKLDRTKLQLEAIKNTMDYMKAQMDGYFSAINGVQCLQPGFEKIGDRYFYIEEDVELNWLDAQAKCRRMGGHLASIKTKQEFDAIVEKLDDSKSYFLGVNENTKTGDFVSAASGKSCLYHEWGPGEPHHNNDQERCVSILRKLMHVGNCTYEKRFICQYGI ?
-1.25
